Every entry's value here was drawn from patent US4578395A.

Would you kindly list remaining at 2 h for each of these molecules?
# testSummary: Light stability in methanol solution
# Format: physicochemical
# experimentalConditions: light, 2 hr., read-out: Remaining percentage
Where a name gives a salt, the structure may show the parent alone.
Numbers only, in %.

molecule | testValue
COC(=O)C1=C(C)NC(C)=C(C(=O)OCCN(C)Cc2ccccc2)C1c1cccc([N+](=O)[O-])c1 (centres unmarked) [Nicardipine hydrochloride, reference compound] | 98

Lookup: Give the measured remaining at 2 h for COC(=O)C1=C(C)NC(C)=C(C(=O)OCC(C)(C)CN(C)Cc2ccccc2)C1c1cccc(Cl)c1F (centres unmarked) [(156) hydrochloride]
Found: 100

* * *

# System: anesthetized rat
# testSummary: Hypotensive activity by intravenous administration in anesthetized rat (Example 27)
# Assay type: in vivo, Male Wistar rats
# experimentalConditions: Rattus norvegicus, iv, anesthetized Wistar rats about 300 g; read-out: ED20 (dose decreasing mean blood pressure by 20%)
Where a name gives a salt, the structure may show the parent alone.
readoutType: ED20 (mg/kg)
Numbers only, in mg/kg.

Worked cases, ED20 given:
compound | unitLabel | ED20
COC(=O)C1=C(C)NC(C)=C(C(=O)OCC(C)(C)CN(C)Cc2ccccc2)C1c1cccc(Cl)c1F (stereo not shown) [(156) hydrochloride] | mg/kg | 0.0245
COC(=O)C1=C(C)NC(C)=C(C(=O)OCC(C)(C)CN(C)C)C1c1cccc([N+](=O)[O-])c1Cl (stereo not shown) [reference compound] | mg/kg | 0.288
COC(=O)C1=C(C)NC(C)=C(C(=O)OCC(C)(C)CN(C)Cc2ccccc2)C1c1cccc([N+](=O)[O-])c1F (stereo not shown) [(130) hydrochloride] | mg/kg | 0.0147

# input for lookup
Lookup: Give the measured ED20 for COC(=O)C1=C(C)NC(C)=C(C(=O)OCC(C)(C)CN(C)C)C1c1cccc(Cl)c1F (stereo not shown) [reference compound]
Found: 0.0807

* * *

# System: anesthetized rats
# testSummary: Hypotensive activity by intravenous administration in anesthetized rats (Example 23)
# Type: in vivo, Male Wistar rats
# experimentalConditions: Rattus norvegicus, iv, anesthetized Wistar rats about 250 g; read-out: ED20 (dose decreasing mean blood pressure by 20%)
Where a name gives a salt, the structure may show the parent alone.
readoutType: ED20 (mg/kg)
One number for each entry, in mg/kg.

Worked cases, ED20 given:
molecule | target | ED20 (mg/kg)
COC(=O)C1=C(C)NC(C)=C(C(=O)OCCN(C)Cc2ccccc2)C1c1cccc([N+](=O)[O-])c1 (stereo not shown) [Nicardipine hydrochloride, reference compound] | anesthetized rats | 0.021
COC(=O)C1=C(C)NC(C)=C(C(=O)OCC(C)(C)CN(C)Cc2ccccc2)C1c1cccc([N+](=O)[O-])c1 (stereo not shown) [(302) hydrochloride] | anesthetized rats | 0.0091
COC(=O)C1=C(C)NC(C)=C(C(=O)OCC(C)(C)CN(C)Cc2ccccc2)C1c1cccc([N+](=O)[O-])c1F (stereo not shown) [(130) hydrochloride] | anesthetized rats | 0.016

# input for lookup
Lookup: Give the measured ED20 for COC(=O)C1=C(C)NC(C)=C(C(=O)OCC(C)(C)CN(C)Cc2ccccc2)C1c1cccc(Cl)c1F (stereo not shown) [(156) hydrochloride]
Found: 0.0149

* * *

# System: conscious rats
# testSummary: Antihypertensive activity by oral administration in conscious rats
# Format: in vivo, Male Wistar rats
# experimentalConditions: 10 mg/kg oral, after 2 hr
Structures can show the parent of a compound that is named as a salt.
readoutType: Changes in mean blood pressure (mmHg)
Answers are plain numbers, in mmHg.

Worked cases, Changes in mean blood pressure given:
compound | target | readoutType | testValue
COC(=O)C1=C(C)NC(C)=C(C(=O)OCC(C)(C)CN(C)Cc2c(Cl)cccc2Cl)C1c1cccc(Cl)c1F (stereo not shown) [(202) hydrochloride] | conscious rats | Changes in mean blood pressure | -33
COC(=O)C1=C(C)NC(C)=C(C(=O)OCC(C)(C)CN(C)Cc2ccccc2)C1c1cc([N+](=O)[O-])ccc1F (stereo not shown) [(140) hydrochloride] | conscious rats | Changes in mean blood pressure | -36.2
COC(=O)C1=C(C)NC(C)=C(C(=O)OCCN(C)Cc2ccccc2)C1c1cccc([N+](=O)[O-])c1 (stereo not shown) [Nicardipine hydrochloride, reference compound] | conscious rats | Changes in mean blood pressure | -16.3

Lookup: Give conscious rats Changes in mean blood pressure for the following compound: CCOC(=O)C1=C(C)NC(C)=C(C(=O)OC)C1c1cccc(Cl)c1Cl (stereo not shown) [Felodipine, reference compound]
Found: -22
